Taken from the supplement of paper PMC7125110.

Measured self-cleavage kobs at 2500 uM GlcN6P, listed per entry for reference.
B1: glmS ribozyme (parent)
chain: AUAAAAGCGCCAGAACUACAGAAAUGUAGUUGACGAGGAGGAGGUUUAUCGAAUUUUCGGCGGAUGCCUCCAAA

Variants of: B1
Experiment: self-cleavage kobs at 2500 uM GlcN6P; higher = faster cleavage; RNA array
Details: with glucosamine-6-phosphate
Variants at the floor of the assay were thinned out.

Example variants with recorded self-cleavage kobs at 2500 uM GlcN6P:
INSERT INTO results (variant_label, measured_parameter, result) VALUES
  ('A39U U46G C70A', 'self-cleavage kobs at 2500 uM GlcN6P', '0.000101 s⁻¹'),
  ('A6C A36U G37C A39U', 'self-cleavage kobs at 2500 uM GlcN6P', '< 1e-05 s⁻¹'),
  ('A36G A48G', 'self-cleavage kobs at 2500 uM GlcN6P', '< 1e-05 s⁻¹');

Ask | So what does the record say about self-cleavage kobs at 2500 uM GlcN6P for A14C G40U ?
Reply | 0.000352 s⁻¹

Ask | So what does the record say about self-cleavage kobs at 2500 uM GlcN6P for C10A G38U G40A ?
Reply | < 1e-05 s⁻¹

Ask | So what does the record say about self-cleavage kobs at 2500 uM GlcN6P for G51U U55C G62A G66C C67U ?
Reply | < 1e-05 s⁻¹

Ask | So what does the record say about self-cleavage kobs at 2500 uM GlcN6P for C10G G40C C71G ?
Reply | < 1e-05 s⁻¹

Ask | So what does the record say about self-cleavage kobs at 2500 uM GlcN6P for U46A U55C ?
Reply | 0.00269 s⁻¹

Ask | So what does the record say about self-cleavage kobs at 2500 uM GlcN6P for G32U G41U G60A ?
Reply | < 1e-05 s⁻¹

Ask | So what does the record say about self-cleavage kobs at 2500 uM GlcN6P for A6G A33U C58G C67U C71A ?
Reply | 0.000109 s⁻¹

Ask | So what does the record say about self-cleavage kobs at 2500 uM GlcN6P for G7U G35U U46A C67U U69C ?
Reply | < 1e-05 s⁻¹

Ask | So what does the record say about self-cleavage kobs at 2500 uM GlcN6P for U30C U47A C70A ?
Reply | 8.14e-05 s⁻¹

Ask | So what does the record say about self-cleavage kobs at 2500 uM GlcN6P for G7C U30G G32U A64G ?
Reply | < 1e-05 s⁻¹

Ask | So what does the record say about self-cleavage kobs at 2500 uM GlcN6P for G62C U65C ?
Reply | < 1e-05 s⁻¹

Ask | So what does the record say about self-cleavage kobs at 2500 uM GlcN6P for A6G A36U A48U C50U ?
Reply | < 1e-05 s⁻¹

Ask | So what does the record say about self-cleavage kobs at 2500 uM GlcN6P for G9C U45A U47C C68G ?
Reply | < 1e-05 s⁻¹

Ask | So what does the record say about self-cleavage kobs at 2500 uM GlcN6P for C19A G40C ?
Reply | 0.00156 s⁻¹

Ask | So what does the record say about self-cleavage kobs at 2500 uM GlcN6P for C10G G63C ?
Reply | < 1e-05 s⁻¹

Ask | So what does the record say about self-cleavage kobs at 2500 uM GlcN6P for A6U G44A U56A ?
Reply | < 1e-05 s⁻¹

Ask | So what does the record say about self-cleavage kobs at 2500 uM GlcN6P for A52U C71G ?
Reply | 5.28e-05 s⁻¹

Ask | So what does the record say about self-cleavage kobs at 2500 uM GlcN6P for G13U G37U G40A U69G ?
Reply | < 1e-05 s⁻¹

Ask | So what does the record say about self-cleavage kobs at 2500 uM GlcN6P for A12G C70A ?
Reply | 7.34e-05 s⁻¹
